system-name: Human full-length SHP2 recombinant protein (Homo sapiens (Human), UniProt Q06124)
method-notes: Assay of full-length SHP2 phosphatase activity
condition-summary: DiFMUP substrate, with activating peptide
measured-parameter: IC50 (nM)

A. COCC#Cc1ccc2c(c1)[C@@H](N)C1(CCN(c3cc(=O)n(-c4cccc(OC)c4Cl)c(C)n3)CC1)C2 [Compound 104]
B. CCNC(=O)C#Cc1ccc2c(c1)[C@@H](N)C1(CCN(c3cnc(Sc4ccnc(N)c4Cl)cn3)CC1)C2 [Compound 155]
Hey, which is lower on measured IC50, A or B ? Which one? Tell me its label.
B

====

system-name: Human full-length SHP2 recombinant protein (Homo sapiens (Human), UniProt Q06124)
method-notes: Assay of full-length SHP2 phosphatase activity
condition-summary: DiFMUP substrate, with activating peptide
measured-parameter: IC50 (nM)

INSERT INTO measurements (compound, quantitative_readout) VALUES
  ('COCC#Cc1ccc2c(c1)[C@@H](N)C1(CCN(c3nc(C)c(Sc4ccnc(N)n4)c4nccn34)CC1)C2 [Compound 117]', 2),
  ('C#Cc1ccc2c(c1)[C@@H](N)C1(CCN(c3ncc(Sc4ccnc(N)c4Cl)c(=O)n3CC)CC1)C2 [Compound 294]', 1),
  ('C#Cc1ccc2c(c1)[C@@H](N)C1(CCN(c3ncc(Sc4ccnc(N)n4)c(N)n3)CC1)C2 [Compound 213]', 68),
  ('C#Cc1ccc2c(c1)CC1(CCN(c3cc(=O)n(-c4cccc(Cl)c4Cl)c(C)n3)CC1)[C@@H]2N (atropisomer, axis not shown) [Compound 24]', 412),
  ('C#Cc1ccc2c(c1)[C@@H](N)C1(CCN(c3cc(=O)n(-c4cccc5[nH]ncc45)c(C)n3)CC1)C2 [Compound 39]', 21),
  ('COCC#Cc1ccc2c(c1)[C@@H](N)C1(CCN(c3ncc(Sc4ccnc(N)c4Cl)c(=O)n3C)CC1)C2 [Compound 291]', 1),
  ('C#Cc1ccc2c(c1)[C@@H](N)C1(CCN(c3cc(=O)n(-c4ccc(C#N)c(OC)c4Cl)c(C)n3)CC1)C2 (atropisomer, axis not shown) [Compound 190]', 253),
  ('Cc1nc(N2CCC3(CC2)Cc2ccc(Nc4cnn(C)c4)cc2[C@H]3N)cc(=O)n1-c1cccc(Cl)c1Cl [Compound 63]', 4);

A. C#Cc1ccc2c(c1)[C@@H](N)C1(CCN(c3cnc(Sc4ccnc(N)n4)c(N)n3)CC1)C2 [Compound 126]
B. CNC(=O)C#Cc1ccc2c(c1)[C@@H](N)C1(CCN(c3nc(N)c(Sc4ccnc(N)c4Cl)nc3C)CC1)C2 [Compound 187]
C. CNC(=O)C#Cc1cc2c(cc1F)CC1(CCN(c3nc(N)c(Sc4ccnc(N)c4Cl)nc3Cl)CC1)[C@@H]2N [Compound 223]
D. CNC(=O)C#Cc1ccc2c(c1)[C@@H](N)C1(CCN(c3cnc(Sc4ccnc(N)n4)cn3)CC1)C2 [Compound 262]
rank_up(items): orders items by reported IC50 in ascending numerical order. Provide the ranking by listing each label in its place in the requested order.
D, B, A, C
(D: 0.3 nM, B: 1 nM, A: 2 nM, C: 4 nM)

====

system-name: Human full-length SHP2 recombinant protein (Homo sapiens (Human))
method-notes: Assay of full-length SHP2 phosphatase activity
condition-summary: DiFMUP substrate, with activating peptide
pIC50: −log10 of the molar value.
measured-parameter: pIC50

Solved entries:
INSERT INTO measurements (molecule, measured_parameter, quantitative_readout) VALUES
  ('C#Cc1ccc2c(c1)[C@@H](N)C1(CCN(c3cc(=O)n(-c4ccccc4C(F)(F)F)c(C)n3)CC1)C2 [Compound 107]', 'pIC50', 6.13),
  ('CN(C)CC#Cc1ccc2c(c1)C(=O)C1(CCN(c3ncc(Sc4ccnc(N)c4Cl)c4nccn34)CC1)C2 [Compound 72]', 'pIC50', 6.01),
  ('CC#Cc1ccc2c(c1)[C@@H](N)C1(CCN(c3cc(=O)n(-c4cccc(OC)c4Cl)c(C)n3)CC1)C2 [Compound 206]', 'pIC50', 8.52),
  ('CNC(=O)C#Cc1ccc2c(c1)[C@@H](N)C1(CCN(c3cc(=O)n(-c4ccc(F)c(F)c4Cl)c(C)n3)CC1)C2 [Compound 202]', 'pIC50', 9.00);

P. CC#Cc1ccc2c(c1)[C@@H](N)C1(CCN(c3cc(=O)n(-c4ccc(F)c(F)c4Cl)c(C)n3)CC1)C2 (atropisomer, axis not shown) [Compound 217]
Q. C#Cc1ccc2c(c1)[C@@H](N)C1(CCN(c3cc(=O)n(-c4ccc(F)c(OC)c4F)c(C)n3)CC1)C2 [Compound 78]
Hey, which is lower on measured pIC50, P or Q ? Which one? Tell me its label.
Q

P. CC#Cc1ccc2c(c1)[C@@H](N)C1(CCN(c3cnc(Sc4ccnc(N)n4)c(N)n3)CC1)C2 [Compound 134]
Q. CN(C)C(=O)C#Cc1ccc2c(c1)[C@@H](N)C1(CCN(c3ncc(Sc4ccnc(N)c4Cl)n4nccc34)CC1)C2 [Compound 196]
R. CC#Cc1ccc2c(c1)[C@@H](N)C1(CCN(c3cc(=O)n(-c4ccc(F)c(F)c4Cl)c(C)n3)CC1)C2 (atropisomer, axis not shown) [Compound 218]
rank_up(items): orders items by reported pIC50 in ascending numerical order. Provide the ranking by listing each label in its place in the requested order.
R, Q, P

1. COc1c(F)ccc(-n2c(C)nc(N3CCC4(CC3)Cc3ccc(C#CCN(C)C)cc3[C@H]4N)cc2=O)c1F [Compound 83]
2. CCNC(=O)C#Cc1ccc2c(c1)[C@@H](N)C1(CCN(c3cnc(Sc4cc(N)nc(Cl)c4Cl)c(N)n3)CC1)C2 [Compound 255]
Hey, which is lower on measured pIC50, 1 or 2 ? Which one? Tell me its label.
2
